Tested on: Clavispora lusitaniae
Assay: Antifungal activity against Candida lusitaniae ATCC 34449 assessed as growth inhibition zone at 50 ug after 24 by Kirby-Bauer agar diffusion assay
Assay type: functional
Settings: read-out: IZ
zone of inhibition at 50 µg/disc overview
OBSERVATION_TYPE: zone of inhibition at 50 µg/disc (mm)

> print(dat)
                                  mol.smiles                  observation.type  measured
 1       CO[C@H]1C(=O)N(SC)[C@H]1c1cccc(I)c1  zone of inhibition at 50 µg/disc        19
 2    CO[C@H]1C(=O)N(SC)[C@H]1c1ccc(Cl)cc1Cl  zone of inhibition at 50 µg/disc        22
 3        CO[C@H]1C(=O)N(SC)[C@H]1c1ccccc1Cl  zone of inhibition at 50 µg/disc        20
 4   CO[C@H]1C(=O)N(SC)[C@H]1c1cc(F)cc(F)c1F  zone of inhibition at 50 µg/disc        17
 5        CO[C@H]1C(=O)N(SC)[C@H]1c1ccccc1Br  zone of inhibition at 50 µg/disc        19
 6      CO[C@H]1C(=O)N(SC)[C@H]1c1ccc(Cl)cc1  zone of inhibition at 50 µg/disc        14
 7  CO[C@H]1C(=O)N(SC)[C@H]1c1cc(F)c(F)c(F)c1  zone of inhibition at 50 µg/disc        25
 8    CSN1C(=O)[C@H](OC(C)=O)[C@@H]1c1ccccc1  zone of inhibition at 50 µg/disc        15
 9      CO[C@H]1C(=O)N(SC)[C@H]1c1cccc(Cl)c1  zone of inhibition at 50 µg/disc        13
10       CO[C@H]1C(=O)N(SC)[C@H]1c1ccc(F)cc1  zone of inhibition at 50 µg/disc         0
11      CO[C@H]1C(=O)N(SC)[C@H]1c1cccc(Br)c1  zone of inhibition at 50 µg/disc        15
12  CSN1C(=O)[C@H](OC(C)=O)[C@@H]1/C=C/c1ccccc1  zone of inhibition at 50 µg/disc         0

* * *

System: Clavispora lusitaniae
Assay: Antifungal activity against Candida lusitaniae ATCC 34449 assessed as growth inhibition zone at 50 ug after 24 by Kirby-Bauer agar diffusion assay
Format: functional
Conditions: read-out: IZ
// zone of inhibition at 50 µg/disc lookup, one value per entry
OBSERVATION_TYPE: zone of inhibition at 50 µg/disc (mm)

> print(dat)
                                    molecule  measured
 1  CO[C@H]1C(=O)N(SC)[C@H]1c1cc(Cl)cc(Cl)c1Cl        23
 2     CO[C@H]1C(=O)N(SC)[C@H]1/C=C/c1ccccc1        14
 3        CO[C@H]1C(=O)N(SC)[C@H]1CCc1ccccc1        15
 4  CCC(C)SN1C(=O)[C@H](OC)[C@@H]1c1ccccc1Cl (some centres undefined)         0
 5    CSN1C(=O)[C@@H](OC(C)=O)[C@H]1c1ccccc1        10
 6   CO[C@H]1C(=O)N(SC)[C@H]1c1cc(F)c(F)cc1F        14
 7  CSN1C(=O)[C@H](Oc2ccccc2)[C@@H]1CCc1ccccc1        14
 8      CO[C@H]1C(=O)N(SC)[C@H]1c1ccc(Br)cc1        17
 9  CSN1C(=O)[C@H](Oc2ccccc2)[C@@H]1/C=C/c1ccccc1         0
10         CO[C@H]1C(=O)N(SC)[C@H]1c1ccccc1F         0
11         CO[C@H]1C(=O)N(SC)[C@H]1c1ccccc1I        17
12  CSN1C(=O)[C@H](OC(C)=O)[C@@H]1CCc1ccccc1         0
13       CO[C@H]1C(=O)N(SC)[C@H]1c1ccc(I)cc1        20
14       CO[C@H]1C(=O)N(SC)[C@H]1c1cccc(F)c1         0
